Data provenance is ChEMBL document CHEMBL1130595.

Molecular target: D(2) dopamine receptor (Rattus norvegicus)
Sequence (P61169 whole entry): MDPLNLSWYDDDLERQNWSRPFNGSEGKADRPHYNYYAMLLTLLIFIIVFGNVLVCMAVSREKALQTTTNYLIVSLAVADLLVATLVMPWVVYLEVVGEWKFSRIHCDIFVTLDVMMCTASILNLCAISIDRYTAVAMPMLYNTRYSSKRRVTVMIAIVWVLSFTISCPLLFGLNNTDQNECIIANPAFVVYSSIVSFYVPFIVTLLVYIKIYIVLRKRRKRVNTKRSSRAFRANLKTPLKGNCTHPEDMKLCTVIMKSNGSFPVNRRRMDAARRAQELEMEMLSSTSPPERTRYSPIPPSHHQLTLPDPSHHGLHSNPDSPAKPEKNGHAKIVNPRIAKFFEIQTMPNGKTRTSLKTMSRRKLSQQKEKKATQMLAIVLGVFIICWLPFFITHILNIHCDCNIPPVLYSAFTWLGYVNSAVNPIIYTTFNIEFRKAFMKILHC
Experiment: Affinity of compound for the D2 receptors in rat striatal membranes was determined for low antagonist state in rat striatal membranes using [3H]spiperone
Type: functional, cell membranes, Membrane
MEASURED_ENDPOINT: pKi
Interpret pKi as the negative base-10 log of the concentration measured in mol/L.

In: Assign pKi to the following record: Clc1ccc2[nH]ccc2c1N1CCN(Cc2ccccc2)CC1
Out: 7.37

* * *

Assignment: determine reported log10 Ki for the given compounds.
Please note: log10 values; quantity Ki; unit nM.

In: Report log10 Ki from D(4) dopamine receptor (Homo sapiens, UniProt P21917) testing of FC(F)(F)c1nc2c(N3CCN(Cc4ccccc4)CC3)cccc2[nH]1
Out: 0.46

In: Report log10 Ki from D(4) dopamine receptor (Homo sapiens, UniProt P21917) testing of Clc1ccc2[nH]ccc2c1N1CCN(Cc2ccccc2)CC1
Out: 0.23

In: Report log10 Ki from D(4) dopamine receptor (Homo sapiens, UniProt P21917) testing of Brc1ccc(N2CCN(Cc3ccccc3)CC2)c2cc[nH]c12
Out: 0.41

In: Report log10 Ki from D(4) dopamine receptor (Homo sapiens, UniProt P21917) testing of O=C1Cc2c(cccc2N2CCN(Cc3ccccc3)CC2)N1
Out: 0.48

In: Report log10 Ki from D(4) dopamine receptor (Homo sapiens, UniProt P21917) testing of O=C1Cc2c(ccc(Cl)c2N2CCN(Cc3ccccc3)CC2)N1
Out: 0.94

In: Report log10 Ki from D(4) dopamine receptor (Homo sapiens, UniProt P21917) testing of c1ccc(CN2CCN(c3cccc4[nH]cnc34)CC2)cc1
Out: 1.67

In: Report log10 Ki from D(4) dopamine receptor (Homo sapiens, UniProt P21917) testing of c1ccc(CN2CCN(c3cccc4[nH]ccc34)CC2)cc1
Out: 1.17

* * *

Molecular target: D(2) dopamine receptor (Homo sapiens)
Sequence (P14416 whole entry): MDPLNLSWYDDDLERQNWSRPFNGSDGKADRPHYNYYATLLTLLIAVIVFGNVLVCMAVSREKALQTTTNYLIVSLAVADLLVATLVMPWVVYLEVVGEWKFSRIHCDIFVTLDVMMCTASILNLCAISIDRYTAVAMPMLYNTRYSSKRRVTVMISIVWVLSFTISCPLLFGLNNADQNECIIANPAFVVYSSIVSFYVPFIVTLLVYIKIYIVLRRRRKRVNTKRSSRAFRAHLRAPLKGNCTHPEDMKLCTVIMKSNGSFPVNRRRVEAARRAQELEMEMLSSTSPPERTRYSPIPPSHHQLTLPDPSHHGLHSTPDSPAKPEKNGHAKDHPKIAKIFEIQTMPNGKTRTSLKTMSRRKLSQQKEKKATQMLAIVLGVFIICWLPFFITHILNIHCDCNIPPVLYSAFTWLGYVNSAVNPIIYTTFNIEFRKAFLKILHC
Experiment: Ratio of the affinity against D2 receptor at low antagonist state to that of D2 receptor at high agonist state
Type: functional
Assignment: determine reported Ratio for the given compounds.
Just the number, please, no unit after it.

In: Assign Ratio to the following record: c1ccc(CN2CCN(c3cccc4[nH]cnc34)CC2)cc1
Out: 11

In: Assign Ratio to the following record: O=C1Cc2c(ccc(Cl)c2N2CCN(Cc3ccccc3)CC2)N1
Out: 7

In: Assign Ratio to the following record: O=C1Cc2c(cccc2N2CCN(Cc3ccccc3)CC2)N1
Out: 14
